biological target: T1, epitope tag peptide SRLEEELRRRLTE (SEQ ID NO: 2), biotinylated (also: biotinylated (site and linker not given here)); test: BLI (Octet), biotinylated peptide on SAX2.0 biosensors, 1:1 global fit
T1 construct: Rationally designed peptide; also called ALFA-tag
T1 peptide: SRLEEELRRRLTE
Ends that are not written are not given here.
# Lookup of reported Kd keyed by entry
Assay Metric: Kd (nM)

Variant 11 of humanized NbALFA (VHH) VHH: EVQLVESGGGLVQPGGSLRLSCAASGVTISALNAMAMGWYRQAPGKRREMVAAVSERGNAMYRESVKGRFTISRDNAKRMVYLQMNSLRAEDTAVYYCHVLEDRVDSFHDYWGQGTQVTVSS
0.0595
wtNbALFA (original alpaca-derived NbALFA single-domain antibody) (VHH, VHH; Any purification tag on the construct used in the BLI and SpA assays is not described; also called wild type NbALFA) VHH: EVQLQESGGGLVQPGGSLRLSCTASGVTISALNAMAMGWYRQAPGERRVMVAAVSERGNAMYRESVQGRFTVTRDFTNKMVSLQMDNLKPEDTAVYYCHVLEDRVDSFHDYWGQGTQVTVSS
0.16
Variant 10 of humanized NbALFA (VHH) VHH: EVQLVESGGGLVQPGGSLRLSCAASGVTISALNAMAMGWYRQAPGKRREMVAAVSERGNTMYRESVQGRFTISRDNAKRMVYLQMNSLRAEDTAVYYCHVLEDRVDSFHDYWGQGTQVTVSS
0.306
Variant 13 of humanized NbALFA (VHH) VHH: EVQLVESGGGLVQPGGSLRLSCAASGVTISALNAMAMGWYRQAPGKRREMVAAVSERGNTYYRDSVKGRFTISRDNAKRMVYLQMNSLRAEDTAVYYCHVLEDRVDSFHDYWGQGTQVTVSS
0.217
